Please respond with reported IC50 for every item in the list.
SYSTEM_TESTED: hCB1 (Homo sapiens, UniProt P21554)
Sequence (P21554 whole entry): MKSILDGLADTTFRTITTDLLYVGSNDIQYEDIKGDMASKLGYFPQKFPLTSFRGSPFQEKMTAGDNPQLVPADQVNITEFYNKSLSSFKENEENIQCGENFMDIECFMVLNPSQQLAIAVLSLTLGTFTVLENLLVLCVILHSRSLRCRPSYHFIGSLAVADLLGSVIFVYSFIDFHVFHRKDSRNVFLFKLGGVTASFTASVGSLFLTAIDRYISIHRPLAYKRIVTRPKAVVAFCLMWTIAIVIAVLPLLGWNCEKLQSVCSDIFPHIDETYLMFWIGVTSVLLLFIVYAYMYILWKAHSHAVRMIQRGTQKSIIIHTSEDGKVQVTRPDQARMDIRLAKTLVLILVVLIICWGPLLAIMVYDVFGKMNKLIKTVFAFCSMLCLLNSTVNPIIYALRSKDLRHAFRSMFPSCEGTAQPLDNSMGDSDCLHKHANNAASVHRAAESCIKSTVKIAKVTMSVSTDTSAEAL
MEASUREMENT_PROTOCOL: hCB1 radioligand binding assay ([3H]-CP 55,940 displacement)
TEST_CONDITIONS: hCB1 IC50 (CP displ, nM, HEK), HEK membranes

Prompt line: Please look at CCCn1c(C)c(C(=O)c2cc3occc3[nH]2)c2ccccc21 and tell me its recorded IC50 on hCB1 (Homo sapiens, UniProt P21554).
Response line: > 10000 nM

Prompt line: Please look at CCCn1c(C)c(C(=O)c2cc3scnc3[nH]2)c2ccccc21 and tell me its recorded IC50 on hCB1 (Homo sapiens, UniProt P21554).
Response line: > 10000 nM

Prompt line: Please look at CCCn1c(C(=O)c2c[nH]c3ncccc23)cc2ccsc21 and tell me its recorded IC50 on hCB1 (Homo sapiens, UniProt P21554).
Response line: > 10000 nM

Prompt line: Please look at CCCn1c(C)c(C(=O)c2cc3ccsc3n2CC)c2c1CCC(C)(C)C2 and tell me its recorded IC50 on hCB1 (Homo sapiens, UniProt P21554).
Response line: 1000 to 10000 nM

Prompt line: Please look at CCn1c(C(=O)c2c3c(n(CC4CCOCC4)c2C)CCCC3)cc2ccsc21 and tell me its recorded IC50 on hCB1 (Homo sapiens, UniProt P21554).
Response line: < 100 nM

Prompt line: Please look at CCCn1c(C)c(C(=O)c2cc3sccc3[nH]2)c2ccccc21 and tell me its recorded IC50 on hCB1 (Homo sapiens, UniProt P21554).
Response line: 1000 to 10000 nM

Prompt line: Please look at CCCn1c(C(=O)c2c(C)[nH]c3ccc(C)cc23)cc2ccsc21 and tell me its recorded IC50 on hCB1 (Homo sapiens, UniProt P21554).
Response line: > 10000 nM

Prompt line: Please look at CCn1c(C(=O)c2c(C)n(CCCNS(C)(=O)=O)c3ccccc23)cc2ccsc21 and tell me its recorded IC50 on hCB1 (Homo sapiens, UniProt P21554).
Response line: 1000 to 10000 nM

Prompt line: Please look at CCCn1c(C)c(C(=O)c2cc3ccsc3s2)c2ccccc21 and tell me its recorded IC50 on hCB1 (Homo sapiens, UniProt P21554).
Response line: 1000 to 10000 nM
